FYI, the data here is from patent US20170129961A1.

Molecular target: T1, full-length mouse CD70 with C-terminal V5 tag (mouse, UniProt O55237 1-195)
T1 construct: On transfected CHO cells; also called murine CD70
T1 sequence: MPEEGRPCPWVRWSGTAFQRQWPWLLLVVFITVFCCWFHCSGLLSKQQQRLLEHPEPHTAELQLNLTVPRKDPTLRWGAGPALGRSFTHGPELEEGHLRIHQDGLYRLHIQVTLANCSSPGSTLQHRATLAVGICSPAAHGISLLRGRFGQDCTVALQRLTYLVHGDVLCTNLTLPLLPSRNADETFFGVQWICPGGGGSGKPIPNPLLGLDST
Test: FACS on CHO cells, periplasmic scFv
test-readout: binding result

Returns the measured binding result for the input binder. Input: CD70-4 (scFv, As m32) scFv: QVQLVQSGAEVKKPGASVKVSCKASGYTFTSYGISWVRQAPGQGLEWMGWISAYNGYTHYAQKLQGRVTMTTDTSTSTAYMELRSLRSDDTAVYYCARDYGGNDYYGMDVWGQGTTVTVSSGGGGSGGGGSGGGGSQSVLTQPPSASGTPGQRVTISCSGSSSNIGINYVYWYQQLPGTAPKLLIYRSDQRPSGVPDRFSGSKSGTSASLALSGLRSEDEADYYCAAWDDSLSGVVFGGGTKLTVL
no binding

Returns the measured binding result for the input binder. Input: CD70-56 (scFv, As m32) scFv: QVQLVESGGGVVQPGRSLRLSCAASGFTFSSYGMHWVRQAPGKGLEWVAVISYDGSNKYYADSVKGRFTISRDNSKNTLYLQMNSLRAEDTAVYYCARGRYYGSGSYNYGMDVWGQGTTVTVSSGGGGSGGGGSGGGGSDIQMTQSPSSLSASVGDRVTITCRASQSIFDYLNWYQQKPGKAPKLLIYAASSLQSGVPSRFSGSGFGTDFTLTISSLQPEDFATYYCQQSYSTPLTFGGGTKLEIK
no binding

Returns the measured binding result for the input binder. Input: CD70-48 (scFv, As m32) scFv: EVQLLESGGGLVQPGGSLRLSCAASGFTFSSYAMSWVRQAPGKGLEWVSVISDSGGITDFADSVKGRFTISRDNSRNTLYLQMNSLRAEDTAVYFCARHDYSNYFFFDYWGQGTLVTVSSGGGGSGGGGSGGGGSDIQMTQSPSSLSASVGDRVTITCRASQGISNYLAWYQQKPGKVPKLLIYAASILQSGVPSKFSGSGSGTDFTLTISSLQPEDFAIYYCQQYFAYPITFGQGTRLEIK
no binding
